# Method Summary: Inhibition of NS5A in HCV genotype 1a assessed as decrease in viral replication
Property Label: pEC50
Answers are plain numbers, as −log10 of the molar value.

Look over these answered cases.
Structure Smiles	pEC50
COC(=O)N[C@H](C(=O)N1CCC[C@H]1c1ncc(-c2ccc3c(ccc4oc5cc(-c6cnc([C@@H]7CCCN7C(=O)[C@@H](NC(=O)OC)C(C)C)[nH]6)ccc5c(=O)c43)c2)[nH]1)C(C)C	11.52
COC(=O)N[C@H](C(=O)N1CCC[C@H]1c1ncc(-c2ccc3c(c2)Oc2ccc4cc(-c5cnc([C@@H]6CCCN6C[C@@H](NC(=O)OC)C6CCOCC6)[nH]5)ccc4c2C3(C)C)[nH]1)C1CCOCC1	11.70

Switching to the query record.
stdin: Which pEC50 value is on record for COC(=O)N[C@H](C(=O)N1C[C@H](F)C[C@H]1c1ncc(-c2ccc3c(ccc4oc5cc(-c6cnc([C@@H]7C[C@@H](F)CN7C(=O)[C@@H](NC(=O)OC)C7CCOCC7)[nH]6)ccc5c(=O)c43)c2)[nH]1)C1CCOCC1 ?
stdout: 10.08
